- target or test system: T1, human GITR (amino acids M1-V241, NCBI Accession #NP_004186.1) expressed on cells (human, UniProt Q9Y5U5 26-241)
- T1 sequence: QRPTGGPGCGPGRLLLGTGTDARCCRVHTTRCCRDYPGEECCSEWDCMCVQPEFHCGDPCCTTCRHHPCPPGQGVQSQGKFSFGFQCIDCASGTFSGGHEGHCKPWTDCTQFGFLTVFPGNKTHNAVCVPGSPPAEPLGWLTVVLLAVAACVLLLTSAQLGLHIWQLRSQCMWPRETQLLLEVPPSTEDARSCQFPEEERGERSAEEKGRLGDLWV
- test summary: cell-based or functional assay
observed property: fold activation, T-cell proliferation, 33 nM, FcgR anchored, donor 2 (fold)
One number for each entry, in fold.

Prompt line: Name the reported fold activation, T-cell proliferation, 33 nM, FcgR anchored, donor 2 value associated with the binder H4H14476P (antibody, human IgG4, V domains shown, human IgG4 (H4H)) VH: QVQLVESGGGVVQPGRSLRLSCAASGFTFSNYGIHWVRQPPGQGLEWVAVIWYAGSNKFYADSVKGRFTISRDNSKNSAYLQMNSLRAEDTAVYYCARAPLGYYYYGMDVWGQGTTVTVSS VL: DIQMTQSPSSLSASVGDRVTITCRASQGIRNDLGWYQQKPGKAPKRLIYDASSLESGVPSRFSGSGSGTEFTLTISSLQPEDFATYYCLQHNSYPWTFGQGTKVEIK
Response line: 0.2
